# system.tested: HCV polymerase (Hepatitis C virus genotype 1b, UniProt P26663)
# Construct: 2.5 pmoles (0.15 μg) HCV polymerase protein in a final volume of 75 μL
# Sequence (P26663 2420-3010): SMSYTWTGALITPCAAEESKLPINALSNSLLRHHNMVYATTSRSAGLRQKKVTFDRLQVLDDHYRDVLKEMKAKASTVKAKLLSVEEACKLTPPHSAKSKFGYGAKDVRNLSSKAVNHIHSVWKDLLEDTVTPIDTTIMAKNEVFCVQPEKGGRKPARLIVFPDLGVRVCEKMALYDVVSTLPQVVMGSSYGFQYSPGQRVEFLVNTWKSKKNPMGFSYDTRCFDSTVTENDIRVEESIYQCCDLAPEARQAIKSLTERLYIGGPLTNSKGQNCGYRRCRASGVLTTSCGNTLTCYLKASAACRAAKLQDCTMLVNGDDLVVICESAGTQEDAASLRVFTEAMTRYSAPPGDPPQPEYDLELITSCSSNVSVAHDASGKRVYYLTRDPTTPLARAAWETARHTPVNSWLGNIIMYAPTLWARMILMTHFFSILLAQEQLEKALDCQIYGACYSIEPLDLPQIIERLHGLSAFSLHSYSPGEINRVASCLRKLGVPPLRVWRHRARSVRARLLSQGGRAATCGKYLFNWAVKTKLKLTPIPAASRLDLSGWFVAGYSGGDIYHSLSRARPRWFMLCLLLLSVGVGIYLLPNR
# test.name: HCV polymerase primer/template-directed transcription assay (32P-GTP incorporation, filter binding)
# Format: biochemical
# details: recombinant HCV polymerase; 30 minutes at 30° C.; concentration giving 50% inhibition of polymerase-directed transcription; read-out: IC50
pIC50: −log10 of the molar value.
Output satisfied for pIC50 not less than 6; output not satisfied otherwise.

COc1ccc(CCC2(C3CCCC3)CC(O)=C(C(C)=O)C(=O)O2)cc1Cl (stereo not shown) [B(88)] ... not satisfied
O=C1CC(=O)OC(CCc2ccc(N3CCCS3(=O)=O)c(F)c2)(C2CCCC2)C1 (stereo not shown) [A(134)] ... not satisfied
CCc1cc(CCC2(C3CCCC3)CC(O)=C(Cc3nc4nc(C)cc(C)n4n3)C(=O)O2)ccc1OC(C)C (stereo not shown) [B(102)] ... satisfied
Cc1cc(C)n2nc(CC3=C(O)CC(CCc4ccc(OC(C)C)c(Cl)c4)(C4CCCC4)OC3=O)nc2n1 (stereo not shown) [B(31)] ... satisfied
CCC(C#N)(CC)c1ccc(CCC2(C3CCCC3)CC(O)=C(Cc3nc4ncc(Cl)cn4n3)C(=O)O2)cc1F (racemic) [A(265)] ... satisfied

Q: Hi team, for O=C1OC(CCC2CCCCC2)(C2CCCC2)CC(O)=C1Sc1nnc(-c2ccncc2)[nH]1 (stereo not shown) [C(27)] , is the recorded pIC50 at or above 6?
Result: not satisfied

* * *

# system.tested: HCV polymerase (Hepatitis C virus genotype 1b, UniProt P26663)
# Construct: 2.5 pmoles (0.15 μg) HCV polymerase protein in a final volume of 75 μL
# test.name: HCV polymerase primer/template-directed transcription assay (32P-GTP incorporation, filter binding)
# Format: biochemical
# details: recombinant HCV polymerase; 30 minutes at 30° C.; concentration giving 50% inhibition of polymerase-directed transcription; read-out: IC50
measured.endpoint: IC50 (nM)
Respond numerically; units are nM and should not be typed.

Would you please look over these solved cases?
CCc1cc(CCC2(C3CCCC3)CC(=O)C(Cc3nc4nc(C)cc(C)n4n3)C(=O)O2)ccc1F (centres unmarked) ... 20
COc1ccc(CCC2(C3CCCC3)CC(O)=C(Sc3nc4ccccc4n3C)C(=O)O2)cc1Cl (centres unmarked) ... 170
Cc1cc(C)n2nc(SC3=C(O)CC(CCc4ccc(C(F)F)c(F)c4)(C4CCCC4)OC3=O)nc2n1 (centres unmarked) ... 130
COc1ccc(CCC2(C3CCCC3)CC(O)=C(Cc3nc(C)nn3C)C(=O)O2)cc1Cl (centres unmarked) ... 350
O=C(O)COc1ccc(CCC2(C3CCCC3)CC(=O)CC(=O)O2)cc1Cl (centres unmarked) ... 2900
O=C1CC(=O)OC(CCNC(=O)CCc2ccco2)(C2CCCC2)C1 (centres unmarked) ... 1000
CC1(C)C(=O)Oc2ccc(CCC3(C4CCCC4)CC(=O)CC(=O)O3)cc21 (centres unmarked) ... 3400
CC(C)Oc1ccc(CCC2(C3CCCC3)CC(O)=C(Sc3nnc(O)n3C(C)C)C(=O)O2)cc1F (centres unmarked) ... 82

Q: So what does the record say about IC50 for COc1ccc(CCC2(C3CCCC3)CC(O)=C(Cc3nc4nc(C)cc(C)n4n3)C(=O)O2)c(F)c1 (centres unmarked) ?
Result: 107

Q: Param item: CN(C)C(=O)c1ccc(CCC2(C3CCCC3)CC(=O)CC(=O)O2)cc1F (centres unmarked)
Result: 14400

Q: Param item: CC(C)n1c(SC2=C(O)CC(CCC3CCCC3)(C3CCCC3)OC2=O)nc2cc(Cl)ccc21 (centres unmarked)
Result: 9300

Q: Param item: CC(C)(O)c1ccc(CCC2(C3CCCC3)CC(O)=C(Cc3nc4ncccn4n3)C(=O)O2)cc1F (centres unmarked)
Result: 172

Q: Param item: Cc1cc(C)n2nc(CC3=C(O)CC(CCc4ccc(C5(C#N)CC5)c(Cl)c4)(C4CCCC4)OC3=O)nc2n1 (centres unmarked) [A(148)]
Result: 5

Q: Param item: CCc1cc(CCC2(C3CCCC3)CC(O)=C(Cc3nc4ncc(Br)cn4n3)C(=O)O2)ccc1O (centres unmarked)
Result: 11
